System: Staphylococcus aureus
protocol-summary: Antibacterial activity against Staphylococcus aureus SA85 isolate
Assay type: functional
Could you please report measured MIC for the items listed next?

Problem: For CCCCCCCC/C=C\CCCCCCCC(=O)OC(COC(=O)CCCCCCCCC)CO[C@@H]1O[C@H](CO)[C@H](O)[C@H](O)[C@H]1O (stereo not given in full) , write its MIC.
Solution: 128 µg/mL

// each molecule listed below needs its MIC
1. CCCCCCCCCCCCCCCCCC(=O)OCC(CO[C@@H]1O[C@H](CO)[C@H](O)[C@H](O)[C@H]1O)OC(=O)CCCCCCCCCCCCCCCCC (stereo not given in full)
2. CC/C=C\C/C=C\C/C=C\CCCCCCCC(=O)OC(COC(=O)CCCCCCC)CO[C@@H]1O[C@H](CO)[C@H](O)[C@H](O)[C@H]1O (stereo not given in full)
3. CCCCCCCCCCCCCC(=O)OCC(CO[C@@H]1O[C@H](CO)[C@H](O)[C@H](O)[C@H]1O)OC(=O)CCCCCCCCCCCCC (stereo not given in full)
4. CC/C=C\C/C=C\C/C=C\CCCCCCCC(=O)OCC(CO[C@@H]1O[C@H](CO)[C@@H](O)[C@H](O)[C@H]1O)OC(=O)CCCCCCC/C=C\C/C=C\C/C=C\CC (stereo not given in full)

Solution:
1: > 128 µg/mL; 2: > 128 µg/mL; 3: > 128 µg/mL; 4: > 128 µg/mL

====

Test system: Mycobacterium tuberculosis
protocol-summary: Antibacterial activity against Mycobacterium tuberculosis H190 by dilution method
Assay type: functional
Could you please report measured MIC for the items listed next?

Known results for molecules:
Problem: For CCCCCCCCCCCCCCCCCC(=O)OCC(CO[C@@H]1O[C@H](CO)[C@H](O)[C@H](O)[C@H]1O)OC(=O)CCCCCCCCCCCCCCCCC (some centres not stated) , write its MIC.
Solution: > 128 µg/mL

Problem: For CC/C=C\C/C=C\C/C=C\CCCCCCCC(=O)OC[C@H](CO[C@@H]1O[C@H](CO)C(O)[C@H](O)[C@H]1O)OC(=O)CCCCCCC/C=C\C/C=C\C/C=C\CC (single isomer, unassigned) , write its MIC.
Solution: > 128 µg/mL

Problem: For CCCCCCCC/C=C\CCCCCCCC(=O)OCC(CO[C@@H]1O[C@H](CO)[C@H](O)[C@H](O)[C@H]1O)OC(=O)CCCCCCC/C=C\CCCCCCCC (some centres not stated) , write its MIC.
Solution: > 128 µg/mL

// each molecule listed below needs its MIC
1. CCCCCCCC/C=C\CCCCCCCC(=O)OC(COC(=O)CCCCCCCCC)CO[C@@H]1O[C@H](CO)[C@H](O)[C@H](O)[C@H]1O (some centres not stated)
2. CCCCCCCC/C=C\CCCCCCCC(=O)OC(COC(=O)CCCCCCCCC)CO[C@@H]1O[C@H](CO)[C@@H](O)[C@H](O)[C@H]1O (some centres not stated)
3. CC/C=C\C/C=C\C/C=C\CCCCCCCC(=O)OCC(CO[C@@H]1O[C@H](CO)[C@@H](O)[C@H](O)[C@H]1O)OC(=O)CCCCCCC/C=C\C/C=C\C/C=C\CC (some centres not stated)
4. CCCCCCCCCCCC(=O)OCC(CO[C@@H]1O[C@H](CO)[C@H](O)[C@H](O)[C@H]1O)OC(=O)CCCCCCCCCCC (some centres not stated)
5. CCCCC/C=C\C/C=C\CCCCCCCC(=O)OC(COC(=O)CCCCCCCCC)CO[C@@H]1O[C@H](CO)[C@@H](O)[C@H](O)[C@H]1O (some centres not stated)

Solution:
["> 128 µg/mL", "> 128 µg/mL", "> 128 µg/mL", "> 128 µg/mL", "> 128 µg/mL"]

// each molecule listed below needs its MIC
1. CCCCCCCC/C=C\CCCCCCCC(=O)OC(COC(=O)CCCCCCC)CO[C@@H]1O[C@H](CO)[C@H](O)[C@H](O)[C@H]1O (some centres not stated)
2. CCCCCCCC/C=C\CCCCCCCC(=O)OCC(CO[C@@H]1O[C@H](CO)[C@@H](O)[C@H](O)[C@H]1O)OC(=O)CCCCCCC/C=C\CCCCCCCC (some centres not stated)

Solution:
["64 µg/mL", "> 128 µg/mL"]

// each molecule listed below needs its MIC
1. CCCCCCCCCC(=O)OCC(CO[C@@H]1O[C@H](CO)[C@H](O)[C@H](O)[C@H]1O)OC(=O)CCCCCCCCC (some centres not stated)
2. CCCCC/C=C\C/C=C\CCCCCCCC(=O)OC(COC(=O)CCCCCCC)CO[C@@H]1O[C@H](CO)[C@@H](O)[C@H](O)[C@H]1O (some centres not stated)
3. CCCCCCCC/C=C\CCCCCCCC(=O)OC(COC(=O)CCCCCCC)CO[C@@H]1O[C@H](CO)[C@@H](O)[C@H](O)[C@H]1O (some centres not stated)
4. CCCCCCCCCCCCCC(=O)OCC(CO[C@@H]1O[C@H](CO)[C@H](O)[C@H](O)[C@H]1O)OC(=O)CCCCCCCCCCCCC (some centres not stated)
5. CC/C=C\C/C=C\C/C=C\CCCCCCCC(=O)OC(COC(=O)CCCCCCCCC)CO[C@@H]1O[C@H](CO)[C@@H](O)[C@H](O)[C@H]1O (some centres not stated)

Solution:
1: 64 µg/mL; 2: 64 µg/mL; 3: 64 µg/mL; 4: > 128 µg/mL; 5: > 128 µg/mL

// each molecule listed below needs its MIC
1. CC/C=C\C/C=C\C/C=C\CCCCCCCC(=O)OC(COC(=O)CCCCCCCCC)CO[C@@H]1O[C@H](CO)[C@H](O)[C@H](O)[C@H]1O (some centres not stated)
2. CCCCC/C=C\C/C=C\CCCCCCCC(=O)OC(COC(=O)CCCCCCCCC)CO[C@@H]1O[C@H](CO)[C@H](O)[C@H](O)[C@H]1O (some centres not stated)

Solution:
["> 128 µg/mL", "> 128 µg/mL"]
